# Tested on: RXRa homodimer (NR concentration 180 nM)
# runDescription: PBM binding z-score (relative to random genomic background probes); higher = stronger binding; sequences stand for … in GC…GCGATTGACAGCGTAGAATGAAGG

{"chainSequence": "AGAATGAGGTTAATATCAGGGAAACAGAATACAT", "PBM binding z-score": 2.14}
{"chainSequence": "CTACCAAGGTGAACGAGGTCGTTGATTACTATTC", "PBM binding z-score": 2.26}
{"chainSequence": "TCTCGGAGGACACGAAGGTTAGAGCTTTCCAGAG", "PBM binding z-score": 0.126}
{"chainSequence": "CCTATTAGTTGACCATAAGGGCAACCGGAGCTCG", "PBM binding z-score": 0.658}
{"chainSequence": "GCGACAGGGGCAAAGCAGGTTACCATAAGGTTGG", "PBM binding z-score": 1.06}
{"chainSequence": "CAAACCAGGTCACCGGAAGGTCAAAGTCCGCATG", "PBM binding z-score": 7.56}
{"chainSequence": "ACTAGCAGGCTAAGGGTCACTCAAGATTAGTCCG", "PBM binding z-score": 4.18}
{"chainSequence": "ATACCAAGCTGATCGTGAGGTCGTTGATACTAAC", "PBM binding z-score": 0.837}
{"chainSequence": "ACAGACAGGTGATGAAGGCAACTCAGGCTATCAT", "PBM binding z-score": 0.152}
{"chainSequence": "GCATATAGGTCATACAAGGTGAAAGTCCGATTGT", "PBM binding z-score": 4.8}
{"chainSequence": "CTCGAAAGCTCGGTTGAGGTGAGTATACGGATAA", "PBM binding z-score": -0.256}
{"chainSequence": "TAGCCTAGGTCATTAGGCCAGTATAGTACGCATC", "PBM binding z-score": 2.1}
{"chainSequence": "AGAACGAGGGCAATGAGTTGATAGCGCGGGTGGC", "PBM binding z-score": 0.602}
{"chainSequence": "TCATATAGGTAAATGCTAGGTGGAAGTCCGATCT", "PBM binding z-score": 0.571}
{"chainSequence": "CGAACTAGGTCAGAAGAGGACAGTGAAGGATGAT", "PBM binding z-score": 1.03}
{"chainSequence": "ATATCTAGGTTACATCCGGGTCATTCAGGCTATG", "PBM binding z-score": 2.78}
{"chainSequence": "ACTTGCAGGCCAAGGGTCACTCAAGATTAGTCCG", "PBM binding z-score": 4.47}
{"chainSequence": "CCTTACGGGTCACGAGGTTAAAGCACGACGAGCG", "PBM binding z-score": 6.97}
{"chainSequence": "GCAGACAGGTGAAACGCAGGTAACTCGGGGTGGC", "PBM binding z-score": 0.633}
{"chainSequence": "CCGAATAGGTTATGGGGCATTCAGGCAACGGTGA", "PBM binding z-score": 1.31}
{"chainSequence": "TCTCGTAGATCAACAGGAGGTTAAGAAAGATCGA", "PBM binding z-score": 1.01}
{"chainSequence": "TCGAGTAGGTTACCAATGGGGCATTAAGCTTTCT", "PBM binding z-score": 0.336}
{"chainSequence": "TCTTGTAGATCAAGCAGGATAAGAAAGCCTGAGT", "PBM binding z-score": -0.0789}
{"chainSequence": "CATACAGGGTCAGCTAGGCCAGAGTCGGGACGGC", "PBM binding z-score": 4.21}
{"chainSequence": "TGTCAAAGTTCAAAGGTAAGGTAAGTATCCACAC", "PBM binding z-score": 7.16}
{"chainSequence": "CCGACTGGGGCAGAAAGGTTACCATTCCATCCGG", "PBM binding z-score": 1.3}
